Provenance of the data: PubChem BioAssay (NCATS)

EXPERIMENT NOTES: Cell Viability - LYMP2-008 (AID 980);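 note: cells exposed to compound for 24 h at 37 °C; nearly all actives have a fitted effect of over 60% in size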
APPLIED CONDITIONS: LYMP2-008 lymphoblastoid cell viability, qHTS; series mostly up to 92.2 µM
Records with an inconclusive call do not appear. The source made the active and inactive calls. Calls come from the whole dose curve; as a rule, active = well fitted cell-killing curve with a large enough effect; inconclusive = small, poorly fitted or top-dose-only effect; inactive = flat fitted curve, though single readings scatter.
EXPERIMENTAL READOUT: outcome

MOLECULE	RESULT
O=C(O)CNC(=O)c1ccc([N+](=O)[O-])cc1	inactive
C=CCOC(=O)COCCC(C)C	inactive
C[C@@H]1O[C@@H](O[C@@H]2[C@@H](O)[C@H](OCCc3ccc(O)c(O)c3)O[C@H](CO[C@@H]3O[C@H](CO)[C@@H](O)[C@H](O)[C@H]3O)[C@H]2OC(=O)/C=C/c2ccc(O)c(O)c2)[C@H](O)[C@H](O)[C@H]1O	inactive
C=C(C)C(N)=O	inactive
CCOCCOCC	inactive
c1ccsc1	inactive
BrC/C=C/CBr	inactive
C=CC(=O)OCCCC	inactive
O=[N+]([O-])c1cccc(C(F)(F)F)c1	inactive
O=[N+]([O-])c1cc(C(F)(F)F)ccc1Cl	inactive
Cc1ccccc1C(N)=O	inactive
CCC(C)(C)OC	inactive
CCC(C)(C)C	inactive
Cc1cccc(C(=O)O)c1[N+](=O)[O-]	inactive
Cc1ccc(C)c(O)c1	inactive
Cc1cc(C)cc([N+](=O)[O-])c1	inactive
CC(=O)Nc1ccc(N)cc1	inactive
Cc1ccc(C)c(N)c1	inactive
O=C1OC(=O)c2cc([N+](=O)[O-])ccc21	inactive
O=CNc1ccccc1	inactive
O=[N+]([O-])c1c(Cl)cc(Cl)cc1Cl	inactive
Cc1cc(C(=O)O)ccc1[N+](=O)[O-]	inactive
Nc1cccc(O)c1	inactive
CC(=O)OCCC(C)C	inactive
O=Cc1ccccc1Cl	inactive
[O-]/[N+](=N\O)c1ccccc1	inactive
FC(F)(F)c1cccc(Cl)c1	inactive
CN(C)CCCNCCCN	inactive
Clc1cc(Cl)cc(Cl)c1	inactive
C/C=C(/C)C#N	inactive
CCOC(=O)C(C)C(C)=O (configuration not stated)	inactive
O=C(O)CCSSCCC(=O)O	inactive
